Target: human μ-opiate receptor (Homo sapiens, UniProt P35372)
Construct: purchased PerkinElmer Life Sciences, Zaventem, Belgium RB-HOM; host or cells: CHO-K1 cells (recombinant expression; membrane preparation)
Sequence (P35372 whole entry): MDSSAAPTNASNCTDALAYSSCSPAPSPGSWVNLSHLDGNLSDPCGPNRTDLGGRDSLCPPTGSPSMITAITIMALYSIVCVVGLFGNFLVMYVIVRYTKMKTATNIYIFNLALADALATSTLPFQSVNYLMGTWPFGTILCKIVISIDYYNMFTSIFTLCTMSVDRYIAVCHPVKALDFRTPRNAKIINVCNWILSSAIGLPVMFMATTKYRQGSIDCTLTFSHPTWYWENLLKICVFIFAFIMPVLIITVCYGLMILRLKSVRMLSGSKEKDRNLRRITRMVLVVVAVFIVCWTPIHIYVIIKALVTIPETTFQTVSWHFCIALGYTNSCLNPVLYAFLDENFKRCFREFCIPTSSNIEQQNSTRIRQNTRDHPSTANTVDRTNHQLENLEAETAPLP
Assay: Affinity for the human μ-opiate receptor ([3H]-naloxone displacement, SPA)
Details: Table 2, Examples 11-161; test substance 1 μmole/l; inhibition of specific [3H]-naloxone binding; CHO-K1 membranes; read-out: μ-Opioid receptor, % inhibition [1 μM]
RESULT_TYPE: inhibition at 1 µM (%)
Express it in %; write the number only.

Per the reported human μ-opiate receptor (Homo sapiens, UniProt P35372) data, COC(=O)C1(Cc2ccc(Cl)cc2)N=CN(C2CCCCC2)C1C1CCC(C(c2ccc(Cl)cc2)N(C)C)CC1 (stereo not shown) [Example 15] has inhibition at 1 µM of 76

Per the reported human μ-opiate receptor (Homo sapiens, UniProt P35372) data, COC(=O)C1(CSCc2ccccc2)N=CN(C2CCCCC2)C1C1CCC(C(c2cccc(F)c2)N(C)C)CC1 (stereo not shown) [Example 116] has inhibition at 1 µM of 101

Per the reported human μ-opiate receptor (Homo sapiens, UniProt P35372) data, COC(=O)C1(CSC)N=CN(Cc2ccccc2)C1CC1CCC(C(c2ccc(Cl)cc2)N(C)C)CC1 (stereo not shown) [Example 100] has inhibition at 1 µM of 97

Per the reported human μ-opiate receptor (Homo sapiens, UniProt P35372) data, COC(=O)CCC1(C(=O)OC)N=CN(CCc2ccccc2)C1CC1CCC(C(c2ccc(Cl)cc2)N(C)C)CC1 (stereo not shown) [Example 94] has inhibition at 1 µM of 97

Per the reported human μ-opiate receptor (Homo sapiens, UniProt P35372) data, COC(=O)C1(CSCc2ccccc2)N=CN(Cc2ccccc2)C1CC1CCC(C(c2ccc(Cl)cc2)N(C)C)CC1 (stereo not shown) [Example 101] has inhibition at 1 µM of 96

Per the reported human μ-opiate receptor (Homo sapiens, UniProt P35372) data, CCCN1C=NC(CC(C)C)(C(=O)OC)C1C1CCC(C(c2cccc(F)c2)N(C)C)CC1 (stereo not shown) [Example 21] has inhibition at 1 µM of 83

Per the reported human μ-opiate receptor (Homo sapiens, UniProt P35372) data, CCCCN1C=NC(CCSC)(C(=O)OC)C1CC1CCC(C(CCc2ccccc2)N(C)C)CC1 (stereo not shown) [Example 128] has inhibition at 1 µM of 83
